Values were extracted from PubChem BioAssay AID1418.

- target-or-test-system: Induced myeloid leukemia cell differentiation protein Mcl-1 (Homo sapiens)
- test-name: blockers of Bid binding to Mcl-1 – biochemical, TR-FRET, dose response (AID 1418)
- test-context: Mcl-1/Bid peptide binding, TR-FRET (europium/Dy647), 2 hr
The source made the active and inactive calls. The rule behind the calls is not given here.
Your response should consist of one outcome taken from active, inactive

Challenge: In this assay, the call recorded for Cc1ccc(-c2cn(-c3ccccc3)c(SCC(N)=O)n2)cc1C was what?
Response given: inactive

Challenge: In this assay, the call recorded for COC(=O)c1cc(NC(=S)NCc2ccc(Cl)cc2)cc(C(=O)OC)c1 was what?
Response given: inactive

Challenge: In this assay, the call recorded for O=C(ONc1ccc(N=NC(=O)c2ccccc2O)cc1)c1ccccc1 was what?
Response given: inactive

Challenge: In this assay, the call recorded for O=C1NN(c2ccc(Cl)c(Cl)c2)C(=O)/C1=C/c1cccc(OC(=O)c2cccs2)c1 was what?
Response given: active

Challenge: In this assay, the call recorded for COc1ccc(CCNC(=O)c2ccc(CNS(=O)(=O)c3ccc(C(C)(C)C)cc3)cc2)cc1OC was what?
Response given: inactive

Challenge: In this assay, the call recorded for O=C(CSc1nnc(COc2cccc3cccnc23)o1)N1CCc2ccccc21 was what?
Response given: inactive

Challenge: In this assay, the call recorded for CCc1nnc(NS(=O)(=O)c2ccc(NC(=S)NC(=O)/C=C/c3ccc(C(C)C)cc3)cc2)s1 was what?
Response given: active

Challenge: In this assay, the call recorded for Cc1cc(C)cc(N(CC(=O)NC2CCC(C)CC2)S(=O)(=O)c2c(C)noc2C)c1 (stereo not given) was what?
Response given: inactive

Challenge: In this assay, the call recorded for C#CCOCCOCCOCCNc1nc(N2CCN(C(=O)[C@H](CCC(=O)O)n3cc(C(N)CC(C)C)nn3)CC2)nc(N2CCN(C(=O)[C@H](CCC(=O)O)n3cc(C(N)[C@H](C)CC)nn3)CC2)n1 (stereo not given in full) was what?
Response given: active

Challenge: In this assay, the call recorded for COc1ccc(/C=N/NS(=O)(=O)c2ccccc2)cc1OC(=O)c1ccc(C)cc1 was what?
Response given: inactive

Challenge: In this assay, the call recorded for CCOc1ccc(-c2csc3ncn(-c4ccc(OC)cc4)c(=O)c23)cc1 was what?
Response given: inactive

Challenge: In this assay, the call recorded for Cc1ccc(C(=O)OC2=CC(=O)CC(C)(C)C2)cc1 was what?
Response given: inactive

Challenge: In this assay, the call recorded for O=C(CN1C(=O)NC2(CCc3ccccc3C2)C1=O)Nc1ccc(F)cc1 (stereo not given) was what?
Response given: inactive

Challenge: In this assay, the call recorded for COc1cccc(-n2c(SCc3ccccn3)nc3c(c2=O)SCC3)c1 was what?
Response given: inactive

Challenge: In this assay, the call recorded for COc1ccc(Nc2ncc(C(=O)N3CCN(c4ccc(F)cc4)CC3)c3ccccc23)cc1 was what?
Response given: inactive

Challenge: In this assay, the call recorded for N=C1/C(=C/c2ccc(-c3cccc(C(=O)O)c3)o2)C(=O)N=C2SC=C(c3ccccc3)N12 was what?
Response given: active

Challenge: In this assay, the call recorded for CC(=O)N(/N=C/c1cccc(C)c1)c1nc(-c2ccc(Br)cc2)cs1 was what?
Response given: inactive

Challenge: In this assay, the call recorded for O=C(C1=C[C@@H](c2csc3ccccc23)C[C@@H](OCc2ccc(CO)cc2)O1)N1CCN(Cc2ccc3c(c2)OCO3)CC1 was what?
Response given: inactive

Challenge: In this assay, the call recorded for O=C(O)c1ccccc1-c1ccc(/C=c2\sc3nc4cc(Br)cnc4n3c2=O)o1 was what?
Response given: active

Challenge: In this assay, the call recorded for COc1ccc(-n2c(=O)cc(N3CCOCC3)[nH]c2=O)cc1 was what?
Response given: inactive

Challenge: In this assay, the call recorded for O=C(N/N=C/c1cccc([N+](=O)[O-])c1)c1cc2c(ccc3ccccc32)o1 was what?
Response given: active

Challenge: In this assay, the call recorded for CCS(=O)(=O)c1ccc(S(=O)(=O)CC)s1 was what?
Response given: inactive

Challenge: In this assay, the call recorded for O=C(O)CCCC(=O)Nc1cccc(C(=O)Nc2ccccc2C(=O)O)c1 was what?
Response given: inactive

Challenge: In this assay, the call recorded for COc1cc(C(=O)Nc2ccc3c(c2)C(=O)c2ccccc2C3=O)cc(OC)c1OC was what?
Response given: active

Challenge: In this assay, the call recorded for CC(=O)c1ccc(NC(=S)NNC(=O)c2ccncc2)cc1 was what?
Response given: inactive

Challenge: In this assay, the call recorded for CCOC(=O)c1c(C)oc2c1c(C(c1cccnc1)N1CCOCC1)c(O)c1ccccc12 (stereo not given) was what?
Response given: active

Challenge: In this assay, the call recorded for COc1ccc2[nH]c3c4c(ccc3c2c1)C(=O)C=CC4=O was what?
Response given: active

Challenge: In this assay, the call recorded for COc1ccc(-c2nc3ccccc3c(=O)n2CCOc2cccc(C)c2C)cc1 was what?
Response given: inactive

Challenge: In this assay, the call recorded for CCN(CCNC(=O)CN1CCN(Cc2ccc(Cl)cc2)C1=O)c1ccccc1 was what?
Response given: inactive

Challenge: In this assay, the call recorded for CNc1nn(-c2cccc(Cl)c2)nc1N was what?
Response given: inactive

Challenge: In this assay, the call recorded for CC(C)c1[nH]nc2c1C(c1cccnc1)C(C#N)=C(N)O2 (stereo not given) was what?
Response given: inactive

Challenge: In this assay, the call recorded for C#CCOCCOCCOCCNc1nc(N2CCN(C(=O)[C@H](CCCCN)n3cc(C(N)[C@H](C)CC)nn3)CC2)nc(N2CCN(C(=O)[C@H](CCC(=O)O)n3cc(C(N)[C@H](C)CC)nn3)CC2)n1 (stereo not given in full) was what?
Response given: active

Challenge: In this assay, the call recorded for CN(C)C(=O)/C(C#N)=C\c1cc(Br)c(Sc2ccc(Cl)cc2)o1 was what?
Response given: inactive

Challenge: In this assay, the call recorded for COc1ccccc1C(=O)NC(=S)NNC(=O)c1sc2ccccc2c1Cl was what?
Response given: active

Challenge: In this assay, the call recorded for Cc1ccc(-n2cccc2/C=C2\C(=N)N3N=C(c4ccco4)SC3=NC2=O)cc1 was what?
Response given: active

Challenge: In this assay, the call recorded for NC(=O)c1cccn1-c1ncc(C(F)(F)F)cc1Cl was what?
Response given: inactive

Challenge: In this assay, the call recorded for COc1cc(NC(=O)COc2ccccc2)c(OC)cc1NC(C)=O was what?
Response given: inactive

Challenge: In this assay, the call recorded for Nc1ccc(N)c(C(=O)O)c1 was what?
Response given: active

Challenge: In this assay, the call recorded for Cc1ccc(C(=O)NC(C)c2nc3ccccc3n2CC(=O)Nc2c(C)cc(C)cc2C)cc1 (stereo not given) was what?
Response given: active

Challenge: In this assay, the call recorded for O=[N+]([O-])C(=c1ccc2c(c1)N1C3=C(CCCC3)CC3CCCCC31N=2)[N+](=O)[O-] (stereo not given) was what?
Response given: active
